Measured parameter: melting point

| Molecule | Result |
| --- | --- |
| O=C1NCC(=O)N2[C@@H](c3ccc4c(c3)OCO4)c3[nH]c4ccccc4c3C[C@H]12 (relative stereo) | 283 to 285 °C |
| CCCCN1CC(=O)N2[C@@H](c3ccc(OC)cc3)c3[nH]c4ccccc4c3C[C@H]2C1=O (relative stereo) | 212 to 214 °C |
| CCCCN1CC(=O)N2[C@@H](c3ccc4c(c3)OCO4)c3[nH]c4ccccc4c3C[C@@H]2C1=O (relative stereo) | 241 to 243 °C |

Look up melting point for this molecule: O=C1[C@H]2Cc3c([nH]c4ccccc34)[C@@H](c3ccc4c(c3)OCO4)N2C(=O)[C@@H]2CCCN12 302 to 304 °C

Look up melting point for this molecule: O=C1[C@@H]2Cc3c([nH]c4ccccc34)[C@H](c3ccccc3)N2C(=O)CN1Cc1ccccc1 (relative stereo) 284 °C

Look up melting point for this molecule: Cc1ccc([C@H]2c3[nH]c4ccccc4c3C[C@@H]3C(=O)N(CC4CC4)CC(=O)N23)cc1 (relative stereo) 194 °C

Look up melting point for this molecule: CN1CC(=O)N2[C@@H](c3ccc(Cl)c(Cl)c3)c3[nH]c4ccccc4c3C[C@@H]2C1=O (relative stereo) > 260 °C

Look up melting point for this molecule: COc1ccc([C@@H]2c3[nH]c4ccccc4c3C[C@@H]3C(=O)N(C)CC(=O)N23)cc1Cl 283 to 284 °C

Look up melting point for this molecule: COc1ccc([C@H]2c3[nH]c4ccccc4c3C[C@H]3C(=O)N(C)CC(=O)N23)cc1 (relative stereo) 225 to 228 °C

Look up melting point for this molecule: O=C1[C@H]2Cc3c([nH]c4ccccc34)[C@H](c3ccc4c(c3)OCO4)N2C(=O)CN1Cc1ccc(F)cc1 (relative stereo) 281 to 283 °C

Look up melting point for this molecule: CC(C)N1CC(=O)N2[C@H](c3ccc4c(c3)OCO4)c3[nH]c4ccccc4c3C[C@@H]2C1=O 290 to 293 °C

Look up melting point for this molecule: CCCCN1CC(=O)N2[C@@H](c3cccs3)c3[nH]c4ccccc4c3C[C@@H]2C1=O (relative stereo) 226 °C

----------
We begin with a simple list: items and their reported melting point.

| Compound | melting point |
| --- | --- |
| Cc1ccc([C@H]2c3[nH]c4ccccc4c3C[C@@H]3C(=O)N(C)CC(=O)N23)cc1 (relative stereo) | > 260 °C |
| O=C1[C@H]2Cc3c([nH]c4ccccc34)[C@H](c3ccc4c(c3)OCO4)N2C(=O)CN1CC1CC1 (relative stereo) | 217 to 218 °C |
| COc1ccc([C@@H]2c3[nH]c4ccccc4c3C[C@@H]3C(=O)N(CC4CC4)CC(=O)N23)cc1 | 204 to 205 °C |
| CN1CC(=O)N2[C@@H](c3ccc4ccccc4c3)c3[nH]c4ccccc4c3C[C@@H]2C1=O (relative stereo) | > 260 °C |
| CN1CC(=O)N2[C@@H](c3ccc(OC(F)(F)F)cc3)c3[nH]c4ccccc4c3C[C@@H]2C1=O (relative stereo) | 174 to 180 °C |
| COc1ccc([C@@H]2c3[nH]c4ccccc4c3C[C@@H]3C(=O)N(CC4CC4)CC(=O)N23)cc1Cl | 218 to 219 °C |

Let us examine a further case.
Look up melting point for this compound: Cc1cccc([C@H]2c3[nH]c4ccccc4c3C[C@@H]3C(=O)N(C)CC(=O)N23)c1 (relative stereo) > 260 °C
